System: U937 human histiocytic leukemia cell line
Assay: Cellular assay: inhibition of TSQ induced necroptosis, CellTitre-Glo viability
Conditions: Homo sapiens, U-937; U937 cells, 48 hours, TSQ cocktail, Table 26; read-out: Inhibition of TSQ-induced necroptosis (IC50 cell-based assay)
pIC50: −log10 of the molar value.
quantity-measured: pIC50

- Cc1ncsc1-c1ccc(CNC(=O)[C@@H]2C[C@@H](O)CN2C(=O)[C@@H](NC(=O)COCCN2CCCC(n3cc(-c4cnc(N)c5c(-c6ccc(NS(=O)(=O)C(F)F)c(O[C@@H](C)c7ccc(F)cc7)c6)nn(C)c45)cn3)C2)C(C)(C)C)cc1 (stereo partly shown): > 6.00
- Cc1ncsc1-c1ccc(CNC(=O)[C@@H]2C[C@@H](O)CN2C(=O)[C@@H](NC(=O)COCCN2CCC(n3cc(-c4cnc(N)c5c(-c6ccc(NS(=O)(=O)C(F)F)c(O[C@@H](C)c7ccc(F)cc7)c6)nn(C)c45)cn3)CC2)C(C)(C)C)cc1: > 6.00
- CCS(=O)(=O)Nc1ccc(-c2n[nH]c3c(-c4cnn(CCOCC(=O)N[C@H](C(=O)N5C[C@H](O)C[C@H]5C(=O)NCc5ccc(-c6scnc6C)cc5)C(C)(C)C)c4)cnc(N)c23)cc1OCc1ccc(F)cc1: < 5.00
- Cc1ncsc1-c1ccc(CNC(=O)[C@@H]2C[C@@H](O)CN2C(=O)[C@@H](NC(=O)CN2CCC(C#Cc3cnc(N)c4c(-c5ccc(NS(=O)(=O)C(F)F)c(O[C@@H](C)c6ccc(F)cc6)c5)nn(C)c34)CC2)C(C)(C)C)cc1: > 6.00

====

Target: human MLKL (full length) (Homo sapiens (Human))
Sequence (Q8NB16 whole entry): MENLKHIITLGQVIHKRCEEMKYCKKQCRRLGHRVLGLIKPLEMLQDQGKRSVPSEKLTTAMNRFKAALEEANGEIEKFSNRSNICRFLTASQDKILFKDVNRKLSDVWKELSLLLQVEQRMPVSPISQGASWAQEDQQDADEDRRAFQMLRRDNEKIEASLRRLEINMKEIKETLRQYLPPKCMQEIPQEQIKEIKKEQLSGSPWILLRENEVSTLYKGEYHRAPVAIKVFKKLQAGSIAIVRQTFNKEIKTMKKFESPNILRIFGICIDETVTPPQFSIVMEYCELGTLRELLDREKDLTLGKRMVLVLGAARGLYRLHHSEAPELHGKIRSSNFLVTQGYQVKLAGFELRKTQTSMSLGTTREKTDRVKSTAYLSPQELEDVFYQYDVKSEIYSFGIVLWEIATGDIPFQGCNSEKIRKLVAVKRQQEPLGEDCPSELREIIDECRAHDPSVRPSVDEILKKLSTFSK
Test: KINOMEscan binding assay, human MLKL (full length)
Settings: hMLKL, Table 25; read-out: MLKL (KD)
pKd: −log10 of the molar value.
quantity-measured: pKd

- Cc1ncsc1-c1ccc(CNC(=O)[C@@H]2C[C@@H](O)CN2C(=O)[C@@H](NC(=O)COCCOCC#Cc2cnc(N)c3c(-c4ccc(NS(=O)(=O)C(F)F)c(O[C@@H](C)c5ccc(F)cc5)c4)nn(C)c23)C(C)(C)C)cc1: > 8.00
- CN[C@@H](C)C(=O)N[C@H](C(=O)N1CC(NC(=O)CCCCCCCCn2cc(-c3cnc(N)c4c(-c5ccc(NS(=O)(=O)C(F)F)c(O[C@@H](C)c6ccc(F)cc6)c5)nn(C)c34)cn2)C[C@H]1C(=O)Nc1c(F)cccc1F)C(C)(C)C (some centres unmarked): > 8.00

====

Target: UniProt Q8NB16
Test: KINOMEscan binding assay, human MLKL (full length)
Conditions: hMLKL, Table 25; read-out: MLKL (KD)
pKd: −log10 of the molar value.
quantity-measured: pKd

• C[C@H](Oc1cc(-c2nn(C)c3c(C#CC(=O)N[C@H]4C[C@H](Nc5cccc6c5C(=O)N(C5CCC(=O)NC5=O)C6=O)C4)cnc(N)c23)ccc1NS(=O)(=O)C(F)F)c1ccc(F)cc1 (some centres unmarked) = > 8.00
• C[C@H](Oc1cc(-c2nn(C)c3c(-c4cnn(C5CCN(CCc6cccc7c6C(=O)N(C6CCC(=O)NC6=O)C7=O)CC5)c4)cnc(N)c23)ccc1NS(=O)(=O)C(F)F)c1ccc(F)cc1 (some centres unmarked) = > 8.00
• C[C@H](Oc1cc(-c2nn(C)c3c(-c4cnn(C5CCN(C(=O)C6CN(c7cccc8c7C(=O)N(C7CCC(=O)NC7=O)C8=O)CCO6)CC5)c4)cnc(N)c23)ccc1NS(=O)(=O)C(F)F)c1ccc(F)cc1 (some centres unmarked) = 6.00 to 8.00
• CCS(=O)(=O)Nc1ccc(-c2n[nH]c3c(-c4cnn(CCOCCOCC(=O)N[C@H](C(=O)N5C[C@H](O)C[C@H]5C(=O)NCc5ccc(-c6scnc6C)cc5)C(C)(C)C)c4)cnc(N)c23)cc1OCc1ccc(F)cc1 = > 8.00
• C[C@H](Oc1cc(-c2nn(C)c3c(-c4cnn(CCCCCCC(=O)Nc5cccc6c5CN(C5CCC(=O)NC5=O)C6=O)c4)cnc(N)c23)ccc1NS(=O)(=O)C(F)F)c1ccc(F)cc1 (some centres unmarked) = > 8.00
